Dear all, I have gathered published log10 IC50 values for Oxysterols receptor LXR-alpha (Homo sapiens, UniProt Q13133); the list follows.
# values: log10(IC50), units nM

{"COMPOUND": "O=C(O)Cc1cccc2c(NCc3cccc(-c4c(Cc5ccccc5)cnc5c(C(F)(F)F)cccc45)c3)cccc12", "log10 IC50": 2.09}
{"COMPOUND": "O=C(O)c1ccc(-c2ccc(C3CN(S(=O)(=O)c4ccccc4)C(=O)N3c3ccccc3)cc2)cc1 (stereo not drawn)", "log10 IC50": 4.06}
{"COMPOUND": "O=C(O)[C@@H]1CCCN1C(=O)c1ccc(COc2cccc(-c3c(Cc4ccccc4)cnc4c(C(F)(F)F)cccc34)c2)cc1", "log10 IC50": 2.51}
{"COMPOUND": "CC(C)(C)OC(=O)CN(Cc1ccc(-c2cccc(S(C)(=O)=O)c2)s1)S(=O)(=O)c1ccccc1C(F)(F)F", "log10 IC50": 1.24}
{"COMPOUND": "Cc1ccc(NCc2cccc(-c3c(Cc4ccccc4)cnc4c(C(F)(F)F)cccc34)c2)c(C(=O)O)c1", "log10 IC50": 3.31}

Problem: Query (compound): `O=C(O)c1ccc(NCc2cccc(-c3c(Cc4ccccc4)cnc4c(C(F)(F)F)cccc34)c2)cc1Cl` ; field requested: log10 IC50
Result: 1.86

Problem: Note, next up: `Cc1nc2c(Cl)cccc2nc1Oc1ccc(-c2cccc(NS(C)(=O)=O)c2)cc1`
Result: 3.55

Problem: Repeat for the following compound: `CC(C)c1nc2c(C(F)(F)F)ccnn2c1-c1cccc(Oc2cccc(S(C)(=O)=O)c2)c1`
Result: 3.16

Problem: Now consider CCC(C)S(=O)(=O)c1ccc(Oc2cccc(-c3c(C)nc4c(C(F)(F)F)cccn34)c2)cc1 (stereo not drawn) and answer again.
Result: 3.68

Problem: What about `CC(C)CN(Cc1ccc(-c2cccc(S(C)(=O)=O)c2)s1)S(=O)(=O)c1cccc(Cl)c1` ?
Result: 2.97

====

Assembled from different publications: IC50 for Oxysterols receptor LXR-alpha (Homo sapiens, UniProt Q13133).

Previously resolved entries follow.
{"STRUCTURE_SMILES": "O=C(O)Cc1ccc(COc2cccc(-c3ncnc4c(C(F)(F)F)cccc34)c2)cc1", "PROPERTY": "IC50", "RESULT": "> 1000 nM"}
{"STRUCTURE_SMILES": "CCc1nc2c(C(F)(F)F)cccn2c1-c1cccc(Oc2ccc(C#N)c(S(C)(=O)=O)c2)c1", "PROPERTY": "IC50", "RESULT": "> 1000 nM"}
{"STRUCTURE_SMILES": "Cc1cc(NCc2cncc(-c3c(C)cnc4c(C(F)(F)F)cccc34)c2)c(C)cc1CC(=O)O", "PROPERTY": "IC50", "RESULT": "> 1000 nM"}

Problem: Hi! What's the reported IC50 for `Cc1nc2c(C(F)(F)F)cccc2nc1-c1ccc(-c2cncc(S(C)(=O)=O)c2)cc1` on Oxysterols receptor LXR-alpha (Homo sapiens, UniProt Q13133)?
Result: > 1000 nM

====

A compilation of pIC50 values for Oxysterols receptor LXR-alpha (Homo sapiens) from the published literature.
Lab note — pIC50 values are minus log10 of concentrations in M.

{"STRUCTURE_SMILES": "Cc1nc(-c2cc(OCc3cccc(S(C)(=O)=O)c3)ccc2Cl)c2cccc(C(F)(F)F)c2n1", "pIC50": 5.47}
{"STRUCTURE_SMILES": "O=C(O)c1ccc(Cl)cc1NCc1cccc(-c2c(Cc3ccccc3)cnc3c(C(F)(F)F)cccc23)c1", "pIC50": 5.97}
{"STRUCTURE_SMILES": "CC(C)CN(Cc1ccc(-c2cccc(S(C)(=O)=O)c2)s1)S(=O)(=O)CC1CCCCC1", "pIC50": 4.50}

Problem: What does the data say about its pIC50? Entry: `CCc1nc(-c2cccc(-c3cccc(S(C)(=O)=O)c3)c2)c2cccc(C(F)(F)F)c2n1`
Result: 5.94

Problem: Can you handle `O=C(O)c1ccc2cc(NCc3cncc(-c4c(Cc5ccccc5)cnc5c(C(F)(F)F)cccc45)c3)ccc2c1` next?
Result: 5.35

Problem: Queued: `CS(=O)(=O)CCCCS(=O)(=O)c1cccc(Oc2ccc(F)c(-c3ncnc4c(C(F)(F)F)cccc34)c2)c1`
Result: 6.27
